Exercise: for every item that follows, state its recorded Z-score.
# tested_target: Human IP6K1 (Homo sapiens)
# Construct: GST (N, cleaved yes); made in house; host or cells: C43 E. coli, pGEX-6P-2
# Sequence (Q92551 whole entry): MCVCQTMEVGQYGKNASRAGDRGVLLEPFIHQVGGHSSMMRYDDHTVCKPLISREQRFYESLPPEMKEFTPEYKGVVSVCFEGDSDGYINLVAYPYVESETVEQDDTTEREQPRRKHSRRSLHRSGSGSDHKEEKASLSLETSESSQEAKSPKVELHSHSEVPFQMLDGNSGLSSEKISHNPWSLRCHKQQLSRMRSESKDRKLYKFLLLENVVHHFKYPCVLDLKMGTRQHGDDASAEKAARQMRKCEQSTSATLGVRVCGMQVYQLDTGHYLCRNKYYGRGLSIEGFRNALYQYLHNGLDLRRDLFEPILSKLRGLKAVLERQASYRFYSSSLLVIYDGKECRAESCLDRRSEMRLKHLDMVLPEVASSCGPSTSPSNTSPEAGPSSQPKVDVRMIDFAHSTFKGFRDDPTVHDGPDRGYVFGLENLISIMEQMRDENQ
# test_description: IP6K1 high-throughput screen of the Sigma LOPAC (ADP-Glo Max, single point);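 note: final compound concentration 10µM in 5% DMSO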
# Assay type: biochemical
# experimental_conditions: LOPAC single-point screen; Z-score relative to plate average and StDev
Structures can show the parent of a compound that is named as a salt.

Study these solved cases before continuing.
# molecule, Z-score
rows = [
    ("CC(=O)S[C@@H]1CC2=CC(=O)CC[C@]2(C)[C@H]2CC[C@@]3(C)[C@@H](CC[C@@]34CCC(=O)O4)[C@H]12", -0.9935),
    ("COCC(=O)O[C@]1(CCN(C)CCCc2nc3ccccc3[nH]2)CCc2cc(F)ccc2[C@@H]1C(C)C [Mibefradil dihydrochloride]", -0.9143),
    ("CCCn1c(=O)c2[nH]c(-c3ccc(S(=O)(=O)O)cc3)nc2n(CCC)c1=O", -0.5374),
    ("OCc1cc(C(O)CNCCCCCCOCCCCc2ccccc2)ccc1O (stereo not drawn)", -0.6423),
    ("Nc1ccc(CCNc2ncnc3c2ncn3[C@@H]2O[C@H](CO)[C@@H](O)[C@H]2O)cc1", -1.183),
]

Give Z-score for each of the items listed below.
1. CN(C)CCCO[C@@H]1[C@H]2OC(C)(C)O[C@H]2O[C@@H]1[C@H](O)CO [Amiprilose hydrochloride]
2. N#C/C(=C\c1ccc(O)c(O)c1)C(=O)c1ccc(O)c(O)c1
3. O=[N+]([O-])c1cc2nc(O)c(O)nc2cc1[N+](=O)[O-]
4. CCCN(CC1CC1)c1nc(C)nc(Nc2c(Cl)cc(Cl)cc2Cl)c1Cl
5. NC(CO)(CO)CO.O=C(c1ccccc1)c1ccc2n1CCC2C(=O)O (stereo not drawn) [Ketorolac tris salt]
6. CCCCCCC(C(C)O)n1cnc2c(N)ncnc21.Cl (stereo not drawn)
7. Br.CO[C@H]1CC=C2CCN3CCC4=C(CC(=O)OC4)[C@]23C1 [Dihydro-beta-erythroidine hydrobromide]

Result:
1: -0.7371; 2: -3.382; 3: -0.8922; 4: -0.5193; 5: -1.058; 6: -0.7986; 7: -0.8373

Give Z-score for each of the items listed below.
1. CN(C)[C@@H]1C(O)=C(C(N)=O)C(=O)[C@@]2(O)C(O)=C3C(=O)c4c(O)ccc(Cl)c4[C@@H](O)[C@H]3C[C@@H]12 [Demeclocycline hydrochloride]
2. Cc1c(C)c2c(c(C)c1O)CCC(C)(CN1CCN(c3cc(N4CCCC4)nc(N4CCCC4)n3)CC1)O2.Cl.Cl (stereo not drawn) [U-83836 dihydrochloride]
3. Nc1ccc2c3c(cccc13)C(=O)NC2=O [4-Amino-1,8-naphthalimide]

Result:
-2.525
-0.6102
-0.5127
